The reported numbers originate from PubChem BioAssay.

The following molecules are listed with their measured slope values.
Target: Alpha-2C adrenergic receptor (Homo sapiens) (UniProt P18825)
Sequence (P18825 whole entry, looked up): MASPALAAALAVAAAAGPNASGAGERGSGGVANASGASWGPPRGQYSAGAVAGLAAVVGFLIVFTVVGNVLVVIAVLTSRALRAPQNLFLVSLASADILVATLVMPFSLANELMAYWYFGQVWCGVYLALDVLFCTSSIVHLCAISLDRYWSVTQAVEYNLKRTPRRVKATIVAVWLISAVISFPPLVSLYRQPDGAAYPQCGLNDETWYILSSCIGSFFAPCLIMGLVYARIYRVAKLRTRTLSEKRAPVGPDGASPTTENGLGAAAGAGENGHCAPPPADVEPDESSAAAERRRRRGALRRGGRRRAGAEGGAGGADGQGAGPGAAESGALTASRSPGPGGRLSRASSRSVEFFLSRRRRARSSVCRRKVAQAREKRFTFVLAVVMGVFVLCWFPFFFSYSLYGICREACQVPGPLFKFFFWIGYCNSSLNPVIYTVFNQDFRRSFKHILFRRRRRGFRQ
Experiment: modulators of alpha2C/GIRK thallium flux, primary screen, cell-based, HEK293 alpha2C/GIRK1/2 (AID 624);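 further: slope of fluorescence ratio to pre-addition baseline per second over 15 to 24 s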
Conditions: thallium flux BTC fluorescence, at 10 µM, actives lie on both sides
Answer as a number with no unit attached.

Field slope (entry COC(=O)c1ccc(NC2(C#N)C(=O)Nc3ccccc32)cc1 (centres undefined) ) reads 0.00466

O=C(Cn1ncc2c(=O)oc3ccccc3c21)NCC1CCCO1 (centres undefined) yielded slope of 0.0073

CCN1CCN(CCCNC(=O)C2c3ccccc3C(=O)N(C)C2c2ccc(OC)cc2)CC1 (centres undefined) has a reported slope of 0.00453

Others:
// slope lookup, molecule = `c1ccc(-c2oc3ncnc(NCCN4CCOCC4)c3c2-c2ccccc2)cc1` , result: 0.00536

Note to self: slope recorded for O=C(c1ccco1)N1CCN(C(=O)C2CC(c3ccc(F)cc3)=NO2)CC1 (centres undefined) was 0.00657

// field: slope; key: `CCN(CC)S(=O)(=O)c1ccc(Br)c(OC)c1` ; value = 0.00493

Value of measured slope for the entry CCc1nnc(NC(=O)C2CCCN2S(=O)(=O)c2ccc(C)cc2)s1 (centres undefined) : 0.00581

What the record says about `Cn1c(=O)c2c(nc(CN3CCN(Cc4ccccc4)CC3)n2Cc2cccc(Cl)c2)n(C)c1=O` : slope is 0.00606

Reported slope of COc1ccc(C2C(C(=O)Nc3cccnc3)=C(C)Nc3nc(-c4cccs4)nn32)cc1OC (centres undefined) : 0.0064

For record O=C1CC(c2cccs2)CC2=C1C(c1ccccc1)n1ncnc1N2 (centres undefined) the listed slope is 0.00446

// field: slope; key: CCC(C)(C(=O)NC1CCCC1)N(C(=O)c1cnccn1)c1c(C)n(C)n(-c2ccccc2)c1=O (centres undefined) ; value = 0.00518

For `Cc1ccc(-n2c(=O)c(C#N)cc3c(=O)n4ccccc4nc32)cc1` the molecule record lists slope as 0.00607

// slope lookup, molecule = `COc1ccccc1C(=O)n1nc(-c2ccc(Cl)cc2)nc1N` , result: 0.00385

Quick note, slope for Cc1ccc2cc(C(c3nnnn3CC3CCCO3)N3CCCC4(CCCCC4)C3)c(=O)[nH]c2c1 (centres undefined) landed at 0.00614

Entry `CCOC(=O)CSc1nnc(NC(=O)c2cccc(S(=O)(=O)N3CCCCC3)c2)s1` ; slope = 0.00424

Form field slope, entry `CC(C)(C)OC(=O)NCCc1nnc(SCC(=O)c2ccc(Cl)cc2)o1` : 0.00407

Measured slope, `c1ccc(-n2ncc3c(NC4CCCCCC4)ncnc32)cc1` : 0.007

So for `O=C1CCCc2nc(N3CCCCC3)sc21` , the logged slope turned out to be 0.00423
